The reported measurements were obtained from patent US20080234262A1.

target: PI3K (Homo sapiens); experiment: Fluorescence polarization assay for PI3K; format: biochemical; details: read-out: PI3Kα IC50; PI3Kα
Experimental Endpoint: pIC50
Give only the number. pIC50 is defined as minus log10 of concentration in molar units.

I am curious: what pIC50 value has been reported for O=C(Oc1ccccc1)N1CCC(n2ncc3c(N4CCOCC4)nc(-c4ccc5[nH]ccc5c4)nc32)CC1 ?
6.27

====

system: breast line MDA468; assay: In vitro cell culture growth assay (MTS), MDA468; format: cell-based, human; details: Homo sapiens, 72 h, MDA468 cells, three days after drug treatment
pIC50 overview
Please note pIC50 is a logarithmic value: minus log10 of concentration in mol/L. Answer with that number alone.

Recorded pIC50 for CNC(=O)Nc1ccc(-c2nc(N3CCOCC3)c3cnn(C4CCN(C(=O)c5ccc(OC)cc5)CC4)c3n2)cc1 [Example 363] , please?
6.40

Give the measured pIC50 of CN(C)CCCNC(=O)c1ccc(-c2nc(N3CCOCC3)c3cnn(-c4ccccc4)c3n2)cc1 .
5.12

Entry COC(=O)N1CCC(n2ncc3c(N4CCOCC4)nc(-c4ccc(NC(=O)Oc5ccc(Cl)cc5)cc4)nc32)CC1 : reported pIC50 = ?
4.77

Given O=C(Nc1ccccc1)Nc1ccc(-c2nc(N3CCOCC3)c3cnn(C4CCN(Cc5cccnc5)CC4)c3n2)cc1 [Example 339] , state its recorded pIC50.
6.70

====

tested on: breast line MDA468; assay: In vitro cell culture growth assay (MTS), MDA468; type: cell-based, human; details: Homo sapiens, 72 h, MDA468 cells, three days after drug treatment
Experimental Endpoint: pIC50
FYI, pIC50 means -log10 of a concentration in mol per litre.

Compound	Experimental Target	Recorded Value
Nc1ccc(-c2nc(N3CCOCC3)c3cnn(C4CCN(C(=O)c5cccnc5)CC4)c3n2)nc1	breast line MDA468	4.22
CS(=O)(=O)Nc1ccc(-c2nc(N3CCOCC3)c3cnn(-c4ccccc4)c3n2)cc1	breast line MDA468	5.30
O=C(NO)Nc1ccc(-c2nc(N3CCOCC3)c3cnn(-c4ccccc4)c3n2)cc1 [Example 293]	breast line MDA468	5.96

Switching to the query record.
Value lookup for pIC50; key = CCNC(=NC#N)Nc1ccc(-c2nc(N3CCOCC3)c3cnn(C4CCN(Cc5cccnc5)CC4)c3n2)cc1
5.49

====

Each item that follows carries a reported IC50.
system: breast line MDA468; assay: In vitro cell culture growth assay (MTS), MDA468; assay type: cell-based, human; details: Homo sapiens, 72 h, MDA468 cells, three days after drug treatment
State the answer as a number, implicitly in µM.

Examples from the recorded data:
Compound	Experimental Target	Recorded Value
CN(C)CC(=O)Nc1ccc(-c2nc(N3CCOCC3)c3cnn(C4CCCCO4)c3n2)cc1 (stereo not shown) [Compound 275]	breast line MDA468	40
COC(=O)Nc1ccc(-c2nc(N3CCOCC3)c3cnn(C4CCN(Cc5ccc(Cl)cc5)CC4)c3n2)cc1	breast line MDA468	9
CC(C)(C)OC(=O)N1CCC(n2ncc3c(N4CCOCC4)nc(-c4ccc(NC(=O)Nc5nccs5)cc4)nc32)CC1	breast line MDA468	1.6
CNC(=O)Nc1ccc(-c2nc(N3CCOCC3)c3cnn(C4CCN(C(=O)c5cccc(Cl)c5)CC4)c3n2)cc1 [Compound 604]	breast line MDA468	0.05
COC(=O)N1CCC(n2ncc3c(N4CCOCC4)nc(-c4ccc(NC(=O)Oc5ccccc5)cc4)nc32)CC1	breast line MDA468	20
c1ccc(CN2CCC(n3ncc4c(N5CCOCC5)nc(-c5ccc(NCCN6CCOCC6)nc5)nc43)CC2)cc1	breast line MDA468	12

Pending compound:
Form field: IC50 recorded for O=C(Nc1ccc(-c2nc(N3CCOCC3)c3cnn(C4CCN(Cc5cccnc5)CC4)c3n2)cc1)Nc1ccccn1 [Example 341] with breast line MDA468 (enter value)
1.8

====

system: breast line MDA468; test: In vitro cell culture growth assay (MTS), MDA468; format: cell-based, human; conditions: Homo sapiens, 72 h, MDA468 cells, three days after drug treatment
Binned IC50; ranges: lower range: < 500 nM; middle range: ≥ 500 nM and < 4000 nM; upper range: ≥ 4000 nM

Use the examples below as a reference point.
Compound	Classification
O=C(N1CCOCC1)N1CCC(n2ncc3c(N4CCOCC4)nc(-c4ccc5[nH]ccc5c4)nc32)CC1 [Compound 121]	middle range
Oc1cccc(-c2nc(N3CCOCC3)c3cnn(CCN4CCCCC4)c3n2)c1 [Compound 126]	upper range
O=C(c1ccccc1)N1CCC(n2ncc3c(N4CCOCC4)nc(-c4cccc(O)c4)nc32)CC1 [Compound 25]	middle range
COC(=O)N1CCC(n2ncc3c(N4CCOCC4)nc(-c4ccc(NC(=O)Nc5ccc(F)cc5)cc4)nc32)CC1 [Compound 859]	lower range

Category of Nc1ccnc(-c2nc(N3CCOCC3)c3cnn(C4CCN(C(=O)c5cccnc5)CC4)c3n2)c1 [Compound 434] :
upper range

Could you tell me which band O=C(Nc1ccccc1)Nc1ccc(-c2nc(N3CCOCC3)c3cnn(C4CCNCC4)c3n2)cc1 [Compound 777] belongs to?
lower range

# bin label for COC(=O)N1CCC(n2ncc3c(N4CCOCC4)nc(-c4ccc(NC(=O)Nc5cccnc5F)cc4)nc32)CC1 [Compound 863]
middle range

Tag the class for CNC(=O)Nc1ccc(-c2nc(N3CCOCC3)c3cnn(C4CCOCC4)c3n2)cc1 [Example 403]
lower range

GET /class?item= CCOC(=O)N1CCC(n2ncc3c(N4CCOC[C@@H]4C)nc(-c4ccc(NC(=O)Nc5ccccc5)cc4)nc32)CC1 [Compound 896]
middle range

Pick a category. Item: CNS(=O)(=O)c1ccc(-c2nc(N3CCOCC3)c3cnn(C4CCN(Cc5ccccc5)CC4)c3n2)cc1 [Compound 86]
upper range

====

Recorded pIC50 for the following compounds
biological target: PI3K (Homo sapiens, UniProt P42336); test: Fluorescence polarization assay for PI3K; format: biochemical; conditions: PI3Kα; read-out: PI3Kα IC50;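 further: PI3K kinase reaction on PIP2 with ATP, 30-60 min, product sensed by GST-GRP with red probe in fluorescence polarization (mP), controls without enzyme and at zero time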
Sequence (P42336 whole entry): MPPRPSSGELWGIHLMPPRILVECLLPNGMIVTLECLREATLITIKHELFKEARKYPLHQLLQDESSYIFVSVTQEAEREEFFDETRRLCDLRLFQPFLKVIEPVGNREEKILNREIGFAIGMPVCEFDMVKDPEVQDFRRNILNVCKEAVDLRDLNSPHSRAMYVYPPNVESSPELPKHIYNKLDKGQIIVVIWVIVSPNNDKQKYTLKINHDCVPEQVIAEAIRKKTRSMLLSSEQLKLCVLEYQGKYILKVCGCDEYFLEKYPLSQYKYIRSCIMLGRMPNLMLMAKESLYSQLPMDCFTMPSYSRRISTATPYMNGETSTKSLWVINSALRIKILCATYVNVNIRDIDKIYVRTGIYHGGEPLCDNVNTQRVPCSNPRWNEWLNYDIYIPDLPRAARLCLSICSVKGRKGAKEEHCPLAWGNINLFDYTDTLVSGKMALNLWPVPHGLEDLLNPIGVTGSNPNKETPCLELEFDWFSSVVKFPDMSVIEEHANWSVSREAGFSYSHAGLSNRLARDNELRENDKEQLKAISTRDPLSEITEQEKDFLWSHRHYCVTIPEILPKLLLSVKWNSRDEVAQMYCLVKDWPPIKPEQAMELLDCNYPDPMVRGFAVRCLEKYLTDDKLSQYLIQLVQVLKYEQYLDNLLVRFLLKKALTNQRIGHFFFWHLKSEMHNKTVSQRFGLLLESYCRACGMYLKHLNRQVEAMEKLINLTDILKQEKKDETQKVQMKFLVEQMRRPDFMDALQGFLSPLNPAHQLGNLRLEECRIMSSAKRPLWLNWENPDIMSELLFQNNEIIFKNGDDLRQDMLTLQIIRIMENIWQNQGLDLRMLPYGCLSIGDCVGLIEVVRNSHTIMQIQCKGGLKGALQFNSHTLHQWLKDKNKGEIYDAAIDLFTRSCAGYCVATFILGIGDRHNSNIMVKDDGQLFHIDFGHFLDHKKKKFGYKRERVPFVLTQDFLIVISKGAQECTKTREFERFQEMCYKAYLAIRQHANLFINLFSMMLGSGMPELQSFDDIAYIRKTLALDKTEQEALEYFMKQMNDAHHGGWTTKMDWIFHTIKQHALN
Sequence (P27986 whole entry partner): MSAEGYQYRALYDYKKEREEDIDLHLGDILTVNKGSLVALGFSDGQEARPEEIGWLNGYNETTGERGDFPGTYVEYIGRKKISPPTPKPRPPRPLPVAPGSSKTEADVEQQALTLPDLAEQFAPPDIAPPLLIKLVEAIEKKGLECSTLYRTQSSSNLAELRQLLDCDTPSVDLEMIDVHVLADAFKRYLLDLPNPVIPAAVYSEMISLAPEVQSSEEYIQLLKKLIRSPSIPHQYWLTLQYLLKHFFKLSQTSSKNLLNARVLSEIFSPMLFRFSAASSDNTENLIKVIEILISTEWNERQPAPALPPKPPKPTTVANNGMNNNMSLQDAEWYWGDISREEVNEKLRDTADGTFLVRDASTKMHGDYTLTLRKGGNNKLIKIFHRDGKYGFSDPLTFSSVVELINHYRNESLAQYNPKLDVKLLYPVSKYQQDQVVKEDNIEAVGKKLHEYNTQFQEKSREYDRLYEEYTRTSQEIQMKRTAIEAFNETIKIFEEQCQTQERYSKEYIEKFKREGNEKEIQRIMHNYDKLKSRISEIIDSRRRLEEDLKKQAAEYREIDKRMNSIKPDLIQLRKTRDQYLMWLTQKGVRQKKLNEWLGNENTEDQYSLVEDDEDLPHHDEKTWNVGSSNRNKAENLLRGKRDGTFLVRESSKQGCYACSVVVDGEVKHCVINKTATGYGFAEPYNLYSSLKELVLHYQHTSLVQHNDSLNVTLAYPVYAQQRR
Give only the number. pIC50 is defined as minus log10 of concentration in molar units.

Compound	pIC50
CNC(=O)Nc1ccc(-c2nc(N3CCOCC3)c3cnn(C4CCN(Cc5ccc(OC)c(O)c5)CC4)c3n2)cc1 [Compound 643]	7.24
COC(=O)Nc1ccc(-c2nc(N3CCOCC3)c3cnn(C4CCN(C(=O)N(C)C)CC4)c3n2)cc1 [Compound 808]	5.58
C=CC(=O)Nc1ccc(-c2nc(N3CCOCC3)c3cn[nH]c3n2)cc1 [Compound 526]	6.22
CNC(=O)Nc1ccc(-c2nc(N3CCOCC3)c3cnn(C4CCN(C(=O)c5ccc(C#N)cc5)CC4)c3n2)cc1 [Example 368]	7.05
O=C(NO)Nc1ccc(-c2nc(N3CCOCC3)c3cnn(C4CCN(Cc5cccnc5)CC4)c3n2)cc1 [Compound 562]	6.59
CCNC(=O)Nc1ccc(-c2nc(N3CCOCC3)c3cnn(C4CCN(C(=O)c5cccnc5)CC4)c3n2)c(F)c1 [Example 462]	5.79

Consider the compound shown here: CCOC(=O)Nc1ccc(-c2nc(N3CCOCC3)c3cnn(C4CCN(C(=O)c5ccccc5)CC4)c3n2)cc1 [Example 383] What is its recorded pIC50?
5.80

Which pIC50 value belongs to Nc1ccc(-c2nc(N3CCOCC3)c3cnn(C4CCN(Cc5ccccc5)CC4)c3n2)cc1[N+](=O)[O-] [Compound 183] ?
5.93

Field request: pIC50 | item: Nc1ncc(-c2nc(N3CCOCC3)c3cnn(C4CCN(C(=O)c5cccnc5)CC4)c3n2)cn1 [Example 215]
7.43

====

tested on: breast line MDA468; test: In vitro cell culture growth assay (MTS), MDA468; type: cell-based, human; conditions: Homo sapiens, 72 h, MDA468 cells, three days after drug treatment
Experimental Endpoint: IC50 (nM)
Only the number, expressed in nM, is required.

Before answering, review these 3 worked examples.
Compound	IC50 (nM)
COC(=O)N1CCC(n2ncc3c(N4CCOCC4)nc(-c4ccc(NC(=O)Nc5ccc(CCO)cc5)cc4)nc32)CC1	1.3
CCOC(=O)N1CCC(n2ncc3c(N4CCOCC4)nc(-c4ccc(NC(=O)NC5CC5)cc4)nc32)CC1	140
CNC(=O)Nc1ccc(-c2nc(N3CCOCC3)c3cnn(C4CCN(Cc5ccc(OC)c(O)c5)CC4)c3n2)cc1	600

Field: next compound
Please state recorded IC50 (tested on breast line MDA468) of CNC(=O)Cc1ccc(-c2nc(N3CCOCC3)c3cnn(C4CCN(Cc5ccccc5)CC4)c3n2)cc1 [Compound 371]
10000

====

tested on: breast line MDA468; test: In vitro cell culture growth assay (MTS), MDA468; assay type: cell-based, human; conditions: Homo sapiens, 72 h, MDA468 cells, three days after drug treatment
Threshold check on IC50: strictly below 2 µM is condition met; on or above 2 µM is condition not met.

Use these answered entries as a reference point.
Molecule	Classification
O=C(NCC1CC1)Nc1ccc(-c2nc(N3CCOCC3)c3cnn(C4CCN(Cc5ccccc5)CC4)c3n2)cc1 [Compound 508]	condition not met
CNC(=O)Nc1ccc(-c2nc(N3CCOCC3)c3cnn(C4CCN(Cc5cccc(Cl)c5)CC4)c3n2)cc1	condition met
COc1ccc(CN2CCC(n3ncc4c(N5CCOCC5)nc(-c5ccc6[nH]ccc6c5)nc43)CC2)cn1	condition not met
CNC(=O)Nc1ccc(-c2nc(N3CCOCC3)c3cnn(C4CCN(C(=O)c5ccc(Cl)cc5)CC4)c3n2)cc1 [Compound 608]	condition met

Please let me know if CC(C)OC(=O)N1CCC(n2ncc3c(N4CCOCC4)nc(-c4ccc(NC(=O)NC5CC5)cc4)nc32)CC1 shows IC50 below 2 µM.
condition met

Lab note: IC50 threshold 2 µM. Does this molecule come in strictly under it? CCOC(=O)N1CCC(n2ncc3c(N4CCOC[C@H]4C)nc(-c4ccc(NC(=O)NC)cc4)nc32)CC1
condition met

Strictly below 2 µM in IC50? COC(=O)Nc1ccc(-c2nc(N3CCOCC3)c3cnn(C4CCN(C(C)=O)CC4)c3n2)cc1
condition not met
